Target: P2X7 (Homo sapiens)
Sequence (Q99572 whole entry): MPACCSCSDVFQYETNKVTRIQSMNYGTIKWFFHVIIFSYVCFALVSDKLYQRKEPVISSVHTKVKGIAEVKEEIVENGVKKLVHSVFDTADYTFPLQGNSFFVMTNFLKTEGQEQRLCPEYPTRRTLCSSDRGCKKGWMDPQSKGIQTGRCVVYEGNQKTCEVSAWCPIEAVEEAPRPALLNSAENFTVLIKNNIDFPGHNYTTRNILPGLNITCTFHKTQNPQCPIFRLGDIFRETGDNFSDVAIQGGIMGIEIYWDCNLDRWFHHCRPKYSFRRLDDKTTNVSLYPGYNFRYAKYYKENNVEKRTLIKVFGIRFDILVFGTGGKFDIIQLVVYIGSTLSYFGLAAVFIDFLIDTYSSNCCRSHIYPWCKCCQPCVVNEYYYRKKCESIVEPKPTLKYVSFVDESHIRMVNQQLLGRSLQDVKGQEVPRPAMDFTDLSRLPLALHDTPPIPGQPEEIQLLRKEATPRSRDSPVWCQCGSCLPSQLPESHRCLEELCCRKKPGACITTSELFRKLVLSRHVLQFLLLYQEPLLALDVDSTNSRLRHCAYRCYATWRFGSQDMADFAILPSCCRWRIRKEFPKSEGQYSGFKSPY
Assay: YO-PRO-1 dye uptake assay in U373 cells stably expressing P2X7
Type: cell-based
Parameters: The complete open reading frame of human P2X7 was amplified from Incyte clone 148057; expressed in transfected cells
Conditions: dye uptake through P2X7, U373 cells, 300 μM BzATP, 5 μM YO-PRO-1, test compounds 30 nM to 3 μM; read-out: IC50
Structures can show the parent of a compound that is named as a salt.
I'd appreciate it if you marked entries True when IC50 is lower than 200 nM and False when it is not.

molecule: Fc1cccc([C@H]2NC(CCc3ccc(F)c(F)c3)=N[C@H]2c2cccc(F)c2)c1
target: P2X7 (Homo sapiens)
assigned label: True
//
molecule: C[C@@]1(c2cccc(F)c2)N=C(NCc2cccc(F)c2)N[C@@H]1c1cccc(F)c1
target: P2X7 (Homo sapiens)
assigned label: True
//
molecule: CN(Cc1ccccc1)C1=N[C@@H](c2ccccc2)[C@@H](c2ccccc2)N1 [hydrochloride]
target: P2X7 (Homo sapiens)
assigned label: True
//
molecule: Cc1cccc(CCC2=N[C@@H](c3ccccc3)[C@@H](c3ccccc3)N2)c1 [trifluoroacetate]
target: P2X7 (Homo sapiens)
assigned label: False
//
molecule: Clc1cccc(CSC2=N[C@@H](c3ccccc3)[C@@H](c3ccccc3)N2)c1
target: P2X7 (Homo sapiens)
assigned label: False
//
molecule: C[C@]1(c2ccccc2)N=C(Cc2ccc(F)cc2)N[C@H]1c1ccccc1 (relative stereo) [trifluoroacetate]
target: P2X7 (Homo sapiens)
assigned label: True

A record lists c1ccc([C@H]2NC(COC3CCCCCCC3)=N[C@H]2c2ccccc2)cc1 [trifluoroacetate] . Is its IC50 below 200 nM?
False
